# Assay Target: recombinant human MASP2 active protease (amino acids 297-686, C-terminal His Tag) (human, UniProt O00187 297-686)
# Sequence (O00187 other isoform, or with tags, fused parts or gaps limits assumed): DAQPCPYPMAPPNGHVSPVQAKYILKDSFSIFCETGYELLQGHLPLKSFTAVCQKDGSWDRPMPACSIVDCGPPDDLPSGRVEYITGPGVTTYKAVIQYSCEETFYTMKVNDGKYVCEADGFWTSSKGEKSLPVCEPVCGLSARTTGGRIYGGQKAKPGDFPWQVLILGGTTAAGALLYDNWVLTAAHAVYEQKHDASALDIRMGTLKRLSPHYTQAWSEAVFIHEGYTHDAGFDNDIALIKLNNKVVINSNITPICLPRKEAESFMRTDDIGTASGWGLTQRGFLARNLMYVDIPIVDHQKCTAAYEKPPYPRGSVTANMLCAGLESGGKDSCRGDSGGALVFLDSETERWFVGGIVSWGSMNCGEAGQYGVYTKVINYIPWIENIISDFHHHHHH
# Measurement Notes: cell-based or functional assay
Bridge positions count the residues as written; N and C are the ends. Square brackets hold non-standard residues; d marks the D form. Ends that are not written are not given here. Phe(3-COOH) = N[C@@H](Cc1cccc(C(=O)O)c1)C(=O)O; Oic = O=C(O)[C@@H]1C[C@@H]2CCCC[C@@H]2N1; tBuAla = CC(C)(C)C[C@H](N)C(=O)O; Pen = CC(C)(S)[C@H](N)C(=O)O; Sar = CNCC(=O)O
Please provide measured human MASP2 IC50 for the entries that follow.
# unit: nM | format: bare number

Reported human MASP2 IC50 for [Sar]ICSRS[tBuAla]PPI[Pen]IP[Phe(3-COOH)]-NH2 (disulfide 3-11; N-terminus assumed; SMILES CC[C@H](C)[C@H](NC(=O)CNC)C(=O)N[C@H]1CSSC(C)(C)[C@@H](C(=O)N[C@H](C(=O)N2CCC[C@H]2C(=O)N[C@@H](Cc2cccc(C(=O)O)c2)C(N)=O)[C@@H](C)CC)NC(=O)[C@H]([C@@H](C)CC)NC(=O)[C@@H]2CCCN2C(=O)[C@@H]2CCCN2C(=O)[C@H](CC(C)(C)C)NC(=O)[C@H](CO)NC(=O)[C@H](CCCNC(=N)N)NC(=O)[C@H](CO)NC1=O) [((N-Me)G)-IC+SRS-((tBu)A)-PPI-(Pen)+IP-((3-Carboxy)F)-NH2] was 42

Reported human MASP2 IC50 for AICSRSLP[Oic]I[Pen]IPE-NH2 (disulfide 3-11; N-terminus assumed; SMILES CC[C@H](C)[C@H](NC(=O)[C@H](C)N)C(=O)N[C@H]1CSSC(C)(C)[C@@H](C(=O)N[C@H](C(=O)N2CCC[C@H]2C(=O)N[C@@H](CCC(=O)O)C(N)=O)[C@@H](C)CC)NC(=O)[C@H]([C@@H](C)CC)NC(=O)[C@@H]2C[C@@H]3CCCC[C@@H]3N2C(=O)[C@@H]2CCCN2C(=O)[C@H](CC(C)C)NC(=O)[C@H](CO)NC(=O)[C@H](CCCNC(=N)N)NC(=O)[C@H](CO)NC1=O) [AIC+SRSLP-(Oic)-I-(Pen)+IPE-NH2] was 160
